Data origin: PubChem BioAssay AID1159580

- Experiment description: chemical genetic growth profiling, strain panel (AID 1159580);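 further: tested at 20 µM; growth read once vehicle control cultures reached saturation at 30 °C; lower values mean less growth of the strain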
- Condition description: S. cerevisiae deletion strains, growth OD, locus YOR083W, strain WHI5
Out of some 5,500 compounds screened, about 2,000 (36%) were called active. About 18% were inconclusive and are not listed. No stated cut-off is given here; in the data, active means normalized growth mostly below about 0.91 (no sharp cut-off); inconclusive means no clear call, values can overlap the other calls; inactive means mostly above about 0.92. The list shows a part of the results.
Thanks in advance; please answer with one of these: True = active, False = inactive

Example entries and their recorded answers appear below.
{"Molecule": "Cc1c(O)c(O)cc2c1CC=C1[C@@]2(C)CC[C@@]2(C)C3C[C@](C)(C(=O)O)CC[C@]3(C)CC[C@]12C (some centres undefined)", "Class label": "True"}
{"Molecule": "CC(C)=CCC/C(C)=C/CC/C(C)=C/CC/C(C)=C/CC/C(C)=C/CC/C(C)=C/CC/C(C)=C/CC/C(C)=C/CC/C(C)=C/CO", "Class label": "False"}
{"Molecule": "CN/C(=C\\[N+](=O)[O-])NCCSCc1ccc(CN(C)C)o1", "Class label": "False"}

Assay outcome for "Nc1ccc(C(=O)NCC(=O)O)cc1" : what was it?
False

Assay outcome for COC(=O)C[C@H]1C(C)(C)C(=O)[C@@H]2CC3=C4CC(=O)O[C@@H](c5ccoc5)[C@]4(C)CCC3[C@@]1(C)C2=O (some centres undefined) : what was it?
False

Assay outcome for "COc1cc(OC)c2c(=O)c(-c3ccccc3)c(C)oc2c1OC" : what was it?
False
